MEASURED_TARGET: Glutathione peroxidase 1 (Homo sapiens) (UniProt P07203)
Sequence (P07203 whole entry, looked up): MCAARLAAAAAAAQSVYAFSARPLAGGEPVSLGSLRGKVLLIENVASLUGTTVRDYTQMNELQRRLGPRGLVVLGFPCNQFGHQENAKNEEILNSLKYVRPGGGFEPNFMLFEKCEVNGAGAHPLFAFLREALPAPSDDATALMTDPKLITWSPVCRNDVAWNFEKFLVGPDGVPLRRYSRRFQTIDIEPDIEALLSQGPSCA
ASSAY_NOTES: Primary qHTS Assay for Inhibitors of Recombinant Selenoprotein Glutathione Peroxidase 1 (GPX1) (AID 1845191); note: nearly all actives have a fitted effect of over 65% in size
TEST_SETTINGS: recombinant GPX1, GR-coupled NADPH fluorescence, 15 min; series mostly up to 48.8 µM
Results filed as inconclusive are left out. Activity calls are given as the source filed them. Calls come from the whole dose curve; as a rule, active = well fitted inhibition curve with a large enough effect; inconclusive = small, poorly fitted or top-dose-only effect; inactive = flat fitted curve, though single readings scatter.
One label from this list, please: True for active, False for inactive

Solved cases below.
molecule=COc1cc(N2CCN(C)CC2)ccc1Nc1ncc2c(n1)N(C)c1ccccc1C(=O)N2 cat=False
molecule=N#Cc1c(N)nc(N)nc1N[C@H](c1nc2c(F)ccc(Cl)c2c(=O)n1-c1cccnc1)C1CC1 cat=False
molecule=COc1ccc(-c2ccc3c(N4CCOC[C@@H]4C)nc(N4CCOC[C@@H]4C)nc3n2)cc1CO cat=True
molecule=C[C@H]1C[C@@H](n2c(Nc3ccc(OC(F)(F)F)cc3)nc3cc(CCC(=O)O)ccc32)CC(C)(C)C1 cat=False
molecule="CCc1ccc2nc(Nc3cc(Cc4ccccc4)nc(NC4CCC(O)CC4)n3)sc2c1 (centres undefined)" cat=False

## Task Status in this test for C=CC(=O)Nc1cccc(Oc2nc(Nc3ccc(N4CCN(C)CC4)cc3)nc3ccsc23)c1 ?
## Result False

## Task Assay result, entry CC(C)[C@H](N)C(=O)O — outcome?
## Result False

## Task How did this test come out for CN1CCN(CCCNc2ncc(Cl)c(-c3cc4c(C(=O)NC5CC5)cccc4s3)n2)CC1 ?
## Result False

## Task What is the recorded call for this molecule in the test? CC1=C2C[C@H]3[C@@H](CC[C@@H]4C[C@H](NS(C)(=O)=O)CC[C@@]43C)[C@@H]2CC[C@@]2(C1)O[C@@H]1C[C@H](C)CN[C@H]1[C@H]2C
## Result False

###

System: TAB109
ASSAY_NOTES: qHTS profiling for inhibitors of Plasmodium falciparum proliferation (AID 504749); note: nearly all actives have a fitted effect of over 60% in size
TEST_SETTINGS: P. falciparum in erythrocytes, SYBR Green DNA, 72 h; series mostly up to 12.8 µM
Records with an inconclusive call do not appear. Activity calls are given as the source filed them. Calls come from the whole dose curve; as a rule, active = well fitted inhibition curve with a large enough effect; inconclusive = small, poorly fitted or top-dose-only effect; inactive = flat fitted curve, though single readings scatter.
# output must be one of TRUE (active), FALSE (inactive)

# count of solved cases: 6
compound=C[N+]12CCC(CC1)[C@@H](OC(=O)C(O)(c1ccccc1)c1ccccc1)C2 cat=FALSE
compound=COC(=O)N/N=C/C1=C[N+](=O)c2ccccc2[N+]1=O cat=FALSE
compound=CO[C@@H]1C[C@H](O[C@H]2[C@@H](C)[C@H](O[C@@H]3O[C@@H](C)C[C@@H](N(C)C)[C@@H]3OC(C)=O)[C@H](C)C[C@]3(CO3)C(=O)[C@H](C)[C@H](OC(C)=O)[C@H](C)[C@H](C)OC(=O)[C@@H]2C)O[C@H](C)[C@@H]1OC(C)=O cat=FALSE
compound="CNC1C(OC2C(O[C@@H]3C(O)C(O)[C@@H](N=C(N)N)C(O)C3N=C(N)N)OC(C)[C@@]2(O)CO)OC(CO)C(O)C1O (some centres undefined)" cat=FALSE
compound=C=CC1=C(C(=O)O)N2C(=O)[C@@H](NC(=O)/C(=N\OCC(=O)O)c3csc(N)n3)[C@@H]2SC1 cat=FALSE
compound=CC[C@H](Cc1c(I)cc(I)c(N)c1I)C(=O)O cat=FALSE

## Task In this assay, the call recorded for CCC(CCC(C)C1CCC2C3CC=C4CC(O)CC[C@@]4(C)C3CC[C@@]12C)C(C)C (some centres undefined) was what?
## Result FALSE

## Task Tell me the recorded outcome of this test for O=C1OC(CO)C(O)C(O)C1O (centres undefined) .
## Result FALSE

## Task How was N[C@@H]1C(O)OC(CO)C(O)C1O (some centres undefined) classified in this test?
## Result FALSE

## Task Call for entry COc1ccc2cc1Oc1ccc(cc1)CC1c3c(cc4c(c3Oc3cc5c(cc3OC)CCN(C)C5C2)OCO4)CCN1C (centres undefined) :
## Result TRUE

## Task // return assay outcome for CC1(C)O[C@H]2C[C@@H]3[C@H]4CCC5=CC(=O)CC[C@@]5(C)[C@]4(F)[C@@H](O)C[C@@]3(C)[C@@]2(C(=O)CCl)O1
## Result TRUE

###

Tested on: CP260
ASSAY_NOTES: qHTS profiling for inhibitors of Plasmodium falciparum proliferation (AID 504749); note: nearly all actives have a fitted effect of over 60% in size
TEST_SETTINGS: P. falciparum in erythrocytes, SYBR Green DNA, 72 h; series mostly up to 12.8 µM
Inconclusive results are not listed. Activity calls are given as the source filed them. Calls follow the shape of the dose curve; as a rule, active = well fitted inhibition curve with a large enough effect; inconclusive = small, poorly fitted or top-dose-only effect; inactive = flat fitted curve, though single readings scatter.
Tick one outcome: 1 (yes) = active, 0 (no) = inactive

molecule=CC(C)Oc1ccc2c(=O)cc(-c3ccccc3)oc2c1 cat="0 (no)"
molecule="CC1CCC(C(C)C)C(=O)C1 (stereo not given)" cat="0 (no)"
molecule=CC(=O)OCC(=O)[C@@]1(O)CC[C@@H]2[C@H]3CCC4=CC(=O)C=C[C@]4(C)[C@]3(F)[C@@H](O)C[C@@]21C cat="0 (no)"
molecule="CC(=O)OC1CCC2C3CCc4cc(O)ccc4C3CCC12C (stereo not given)" cat="0 (no)"
molecule=CCCCCCCCCc1ccc(OCCOCCOCCOCCOCCOCCOCCOCCOCCO)cc1 cat="0 (no)"
molecule=C[C@H](Oc1ccccc1)C(=O)N[C@@H]1C(=O)N2[C@@H]1SC(C)(C)[C@@H]2C(=O)O cat="0 (no)"

## Task Which outcome was entered for the molecule CCOC(=O)Oc1c(OC)cc(C(=O)O[C@H]2C[C@H]3CN4CCc5c([nH]c6cc(OC)ccc56)[C@@H]4C[C@H]3[C@@H](C(=O)OC)[C@@H]2OC)cc1OC in this test?
## Result 1 (yes)

## Task Kindly provide the recorded test outcome for the following molecule: NC(CCC(=O)N[C@@H](CS)C(=O)NCC(=O)O)C(=O)O (stereo not given in full)
## Result 1 (yes)

## Task Per the records of this test, what outcome belongs to C[C@@H](C(=O)O)c1ccc(C(=O)c2ccccc2)s1 ?
## Result 0 (no)

## Task How was CC1(C)SC2C(N3C(=O)C(c4ccccc4)NC3(C)C)C(=O)N2C1C(=O)O (stereo not given) classified in this test?
## Result 0 (no)

###

MEASURED_TARGET: Rap guanine nucleotide exchange factor 4 (Homo sapiens)
ASSAY_NOTES: Confirmatory qHTS for agonist of cAMP-regulated guanine nucleotide exchange factor 4 (EPAC2) (AID 1645884);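 note: nucleotide exchange releases bodipy-GDP from Rap1 and this lowers its fluorescence; nearly all actives have a fitted effect of over 65% in size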
TEST_SETTINGS: EPAC2 GEF activity, Rap1B-BODIPY-GDP fluorescence; series mostly up to 154 µM
Inconclusive results are not listed. Calls of active or inactive are those of the source. Calls come from the whole dose curve; as a rule, active = well fitted activation curve with a large enough effect; inconclusive = small, poorly fitted or top-dose-only effect; inactive = no such curve, though single readings can be large or run the other way.
OBSERVATION_TYPE: activation

molecule=CC(=O)Nc1ccc(SC[C@H](C)CN2CC[C@H](C(C)(C)C)CCC2=O)cc1 measured_result=inactive
molecule=Cc1ccc(-n2nc3c(=O)n(CCCC(=O)NCc4ccccc4F)nc(C)c3c2C)cc1 measured_result=inactive
molecule=Cc1ccc(S(=O)(=O)NC(=O)Cn2nnc(-c3ccccc3)c2COc2ccc3ccccc3c2)cc1 measured_result=inactive
molecule=O=c1[nH]c(/C=C/c2cccc([N+](=O)[O-])c2)c([N+](=O)[O-])c(=O)[nH]1 measured_result=inactive
molecule="CCOC(=O)c1sc(N2C(=O)C(O)=C(C(=O)c3ccco3)C2c2cccc([N+](=O)[O-])c2)nc1C (stereo not given)" measured_result=inactive
molecule=COC(=O)C1=C(C)N(Cc2ccco2)C(=O)/C1=C\c1ccc(N(C)C)cc1 measured_result=inactive
molecule=CCCCOc1ccccc1Cn1c(=O)oc2ccc(C)cc21 measured_result=inactive
molecule=CCOc1cc(C(=O)Nc2ccc3c(c2)n(C)c(=O)c(=O)n3C)cc(OCC)c1OCC measured_result=inactive
molecule=O=C(Nc1ccccc1C(F)(F)F)N1CCC(CN2CCc3ccccc3C2)CC1 measured_result=inactive
molecule=Cc1ccc(Sc2ccc(S(=O)(=O)Nc3ccc(C(=O)O)cc3)cc2)cc1C measured_result=inactive

## Task Return reported activation; argument: Cc1cccc(NC(=O)CN2C(=O)S/C(=C\c3ccc(O)c([N+](=O)[O-])c3)C2=O)c1
## Result inactive

## Task So what does the record say about activation for O=c1cc(O)c2sc3nc(-c4cccnc4)cc(C(F)(F)F)c3c2[nH]1 ?
## Result inactive

## Task Param item = O=C(O)COc1ccc(NC(=O)C(c2ccccc2)c2ccccc2)cc1 ; retrieve measured activation.
## Result inactive

## Task # activation lookup, item COc1ccccc1OCCCSc1nc(-c2ccc(C(C)(C)C)cc2)nc2cc(=O)[nH]n12
## Result inactive

## Task For O=C1NC(=Nc2ccccc2Cl)S/C1=C\c1cccc([N+](=O)[O-])c1O , what is its reported activation?
## Result inactive

## Task // lookup activation for C=CCn1c(N)c(S(=O)(=O)c2cccs2)c2nc3ccccc3nc21
## Result inactive

## Task // lookup activation for CC(C)(C)c1ccc(-c2nc(SCCCOc3ccccc3)n3[nH]c(=O)cc3n2)cc1
## Result inactive

## Task What activation value was documented for this molecule, Cc1ccc(Cn2c(SCC(=O)N/N=C/c3ccc(C)o3)nc3ccccc32)cc1 ?
## Result inactive

## Task Look up activation for this molecule: COc1ccc(/C=N/Nc2ccc(C(=O)O)cc2)cc1Br
## Result inactive

## Task Using the record for Cc1cccc(C)c1OCC(=O)N(Cc1ccco1)Cc1ccco1 , report its activation.
## Result inactive
